- Tested on: HCC 2998
- ASSAY PROCEDURE: NCI tumour cell line growth inhibition, 48 h
Activity calls are given as the source filed them. No stated cut-off is given here; in the data, active = GI50 up to about 1.1 µM and inactive = higher.
Lab note: assign the record to one of active, inactive

Input: So what was the verdict on O=C(N/C(=C\c1ccc([N+](=O)[O-])cc1)c1nc2c(O)nc(S)nc2[nH]1)c1ccccc1 in this test?
Output: inactive

Input: So what was the verdict on COC(=O)n1c(C)c(C=O)c2ccc(OC)cc21 in this test?
Output: inactive

Input: So what was the verdict on COc1ccc(-c2nc(-c3cnccn3)n(C/C=C/c3ccccc3)n2)cc1 in this test?
Output: inactive

Input: So what was the verdict on COc1ccc(/[N+]([O-])=C/c2ccccc2OC(=S)S)cc1 in this test?
Output: inactive

Input: So what was the verdict on CCCC(=O)OC(OC(=O)CCC)c1ccc([N+](=O)[O-])o1 in this test?
Output: inactive

Input: So what was the verdict on COC1OC(Cn2cc([N+](=O)[O-])nc2C)C(O)C(O)C1O (stereo unspecified) in this test?
Output: inactive

Input: So what was the verdict on N=C(N)SCCCN in this test?
Output: active

Input: So what was the verdict on COc1cc2cc3c4c(cc(OC)c(OC)c4c2cc1OC)CCN3C(=O)N(C)C in this test?
Output: inactive

Input: So what was the verdict on O=C(Cc1ccccc1)N/N=C/c1ccccc1O in this test?
Output: inactive

Input: So what was the verdict on C/C=C(/CBr)CCC(Br)C(C)(C)Cl.C/C=C(\CBr)CCC(Br)C(C)(C)Cl (stereo unspecified) in this test?
Output: inactive

Input: So what was the verdict on N#Cc1c(-c2ccccc2)c(C#N)c(=O)n(NS(=O)(=O)c2ccccc2)c1O in this test?
Output: inactive
